Reported melting point values follow for various compounds
quantityName: melting point

compound: CC(C)(C)c1cc(CBr)ccc1O[Si](C)(C)C(C)(C)C
quantityName: melting point
val: 54 to 55 °C

compound: O=C1OC(=O)c2nc3ccccc3cc21
quantityName: melting point
val: 225 to 228 °C

compound: COC1(C(=O)O)C=CC(OCc2ccccc2)=CC1 (stereo not given)
quantityName: melting point
val: 172 to 173 °C

compound: CC(C)c1c(-c2cc(C(F)(F)F)cc(C(F)(F)F)c2)ccc2nc(N)nc(N)c12
quantityName: melting point
val: 212 to 214 °C

compound: Cc1ccc(NC(=O)NCc2ccc3c(c2)CN(C2CCC(=O)NC2=O)C3=O)cc1O (stereo not given)
quantityName: melting point
val: 273 to 275 °C

compound: O=C(Cc1c[nH]c2ccccc12)NC1N=C(c2ccccc2)c2ccccc2NC1=O (racemic)
quantityName: melting point
val: 264 to 265 °C

compound: CCCCC(CC)C(=O)Nc1ccc2ccn(Cc3ccc(C(=O)NS(=O)c4ccccc4)cc3OC)c2c1 (stereo not given)
quantityName: melting point
val: 122 to 126 °C

compound: O=[N+]([O-])c1ccc2nc(N3CCNCC3)ccc2c1
quantityName: melting point
val: 153 °C

compound: COc1cc2ncc(C#N)c(Cl)c2cc1[N+](=O)[O-]
quantityName: melting point
val: 214 to 215 °C

compound: Cn1c(=O)nc(-c2ccccc2F)c2cc(Cl)sc21
quantityName: melting point
val: 192 to 194 °C

compound: CCOC(=O)NC(=S)Nc1ccc(Br)cn1
quantityName: melting point
val: 159 to 161 °C

compound: Cc1cccc(-c2nnc(Nc3ccc(Br)c(Cl)c3)s2)c1
quantityName: melting point
val: 230 to 231 °C

compound: CN(C)Cc1cccc(OCCCNc2nc(Cc3ccccc3)n[nH]2)c1
quantityName: melting point
val: 140 to 141 °C

compound: CCOC(=O)/C=C/c1ccc(Br)nc1
quantityName: melting point
val: 79 to 80 °C

compound: Cc1cc(SC(=O)N(C)C)c(C(C)(C)C)cc1CO
quantityName: melting point
val: 136 °C

compound: CCOP(=O)(OCC)N1CCN(c2cc3c(cc2F)c(=O)c(C(=O)OCCOC)cn3C2CC2)CC1
quantityName: melting point
val: 138 to 141 °C

compound: Cc1ccc(CCOc2ccnc3c(F)cccc23)cc1
quantityName: melting point
val: 89 to 90 °C

compound: COc1cc(-c2ccccc2C(F)(F)F)c(Cl)cc1C(=O)N1Cc2cccn2Cc2ccccc21
quantityName: melting point
val: 208 to 210 °C

compound: N=C(N)Nc1ncc(Cl)c2ccc(C(=O)NCCC(=O)O)cc12
quantityName: melting point
val: 235 to 236 °C

compound: COc1ccc(CN(CCN(C)CCNC(=C[N+](=O)[O-])NCCCOc2cccc(CN3CCCCC3)c2)c2ccccn2)cc1
quantityName: melting point
val: 102 to 104 °C

compound: CN(C)CCNC1=CC(=O)c2nc(-c3ccc(F)cc3)sc2C1=O
quantityName: melting point
val: 246 to 247 °C

compound: N#CC1=CC2(CCSCC2)Oc2ccc([N+](=O)[O-])cc21
quantityName: melting point
val: 175 to 176 °C

compound: CCc1cc(N(C)C(=O)N2CCN(c3cc(OC)cc(OC)c3)CC2)c(OC)nc1C
quantityName: melting point
val: 78 to 79 °C

compound: CC(=O)Oc1ccc2nc(S(N)(=O)=O)sc2c1
quantityName: melting point
val: 193 to 194 °C

compound: Cc1cc(C2=NNC(=O)C2)ccc1[N+](=O)[O-]
quantityName: melting point
val: 218 to 219 °C

compound: C[C@@H](N)CNc1ccnc2cc(Cl)ccc12
quantityName: melting point
val: 145 °C

compound: O=C(O)C1=Cc2cc(Cl)c(Sc3ccc(Cl)cc3)cc2OC1C(F)(F)F (stereo not given)
quantityName: melting point
val: 252 to 253 °C

compound: Nc1sc2c(c1C(=O)c1ccccn1)CCN(Cc1ccccc1)C2
quantityName: melting point
val: 67 to 71 °C

compound: CN1OC(COCc2ccc(Cl)cc2)CC1(Cn1ccnc1)c1ccc(Cl)cc1 (stereo not given)
quantityName: melting point
val: 97 to 100 °C

compound: CCCc1n[nH]cc1-c1nsc(Nc2ccccn2)n1
quantityName: melting point
val: 248 to 250 °C

compound: Clc1ccc2c(c1)C(c1ccccc1)=NCc1c[nH]cc1-2
quantityName: melting point
val: 203 to 206 °C

compound: NC1=NC(c2ccncc2)(c2cccc(-c3cccnc3F)c2)C2=NCCCN12 (stereo not given)
quantityName: melting point
val: 125 to 131 °C

compound: COc1ccc(OCC(O)CN2CCC(Nc3nc4c(C)cccc4n3Cc3nc(C)ccc3O)CC2)cc1 (stereo not given)
quantityName: melting point
val: 227 °C

compound: CCCCCCc1cc(SC)ccc1O
quantityName: melting point
val: 42 to 44 °C

compound: COC(=O)c1ccc(NCCNC(=O)C2Cc3ccccc3N2S(=O)(=O)c2ccc(-c3cc(C(F)(F)F)ccc3Cl)cc2)cc1 (stereo not given)
quantityName: melting point
val: 96 to 98 °C

compound: CCOC(=O)c1sc(Oc2ccccc2)nc1C(F)(F)F
quantityName: melting point
val: 52 to 54 °C

compound: COc1cccc(C2=NN=C(C)Cc3cc(OC)c(OC)cc32)c1
quantityName: melting point
val: 133 to 135 °C

compound: COc1cc2c(cc1OCc1ccccc1)CCN(Cc1ccncc1)C2
quantityName: melting point
val: 125 to 126 °C

compound: COC1OC(CO)C(O)C(NC(=O)N(C)N=O)C1O (stereo not given)
quantityName: melting point
val: 116 to 117 °C

compound: O=C1CCC(c2ccccc2)(c2ccccc2)[C@@H]2CN(C(=O)Cc3cccs3)C[C@H]12 (racemic)
quantityName: melting point
val: 206 °C
